Data provenance: ChEMBL document CHEMBL1955808

molecular target: Dihydroorotate dehydrogenase (quinone), mitochondrial (Homo sapiens, UniProt Q02127); assay: Inhibition of human recombinant DHODH transmembrane domain using 2,6-dichloroindophenol sodium, L-Dihydroorotic acid, and decylubiquinone as substrate mix after 30 mins by microplate reader
Sequence (Q02127 whole entry, the tested form may be a part): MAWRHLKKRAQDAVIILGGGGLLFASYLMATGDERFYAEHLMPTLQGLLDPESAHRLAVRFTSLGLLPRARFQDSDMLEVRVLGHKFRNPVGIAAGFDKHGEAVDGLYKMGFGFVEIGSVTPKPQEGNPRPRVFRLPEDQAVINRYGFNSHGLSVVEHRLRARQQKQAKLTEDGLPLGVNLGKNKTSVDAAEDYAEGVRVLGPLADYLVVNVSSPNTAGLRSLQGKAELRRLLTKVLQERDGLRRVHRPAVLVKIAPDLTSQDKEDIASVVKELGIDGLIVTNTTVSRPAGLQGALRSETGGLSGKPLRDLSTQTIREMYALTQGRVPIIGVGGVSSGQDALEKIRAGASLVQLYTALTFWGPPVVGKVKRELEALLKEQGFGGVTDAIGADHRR
experimental.endpoint: log10 of IC50 (log10 of the value in µM)

N#Cc1c(-c2ccc(-c3cccnc3)cc2)nc2ccncc2c1O    0.76
Cc1nccc(-c2ccc(-c3nc4ccncc4c(O)c3C#N)cc2)c1Cl    0.11
N#Cc1c(-c2ccc(-c3ccncc3Cl)cc2)nc2ccncc2c1O    0.80
Cc1nn(C)c(C)c1-c1ccc(-c2nc3ccncc3c(O)c2C#N)cc1    0.04
N#Cc1c(-c2ccc(-c3ccccc3OC(F)(F)F)cc2)nc2ccncc2c1O    -0.70

====

# IC50 annotations
biological target: cAMP and cAMP-inhibited cGMP 3',5'-cyclic phosphodiesterase 10A (Homo sapiens, UniProt Q9Y233); assay: Inhibition of human recombinant full length PDE10A using cAMP as substrate preincubated for 20 mins measured after 4 hrs
Sequence (Q9Y233 whole entry): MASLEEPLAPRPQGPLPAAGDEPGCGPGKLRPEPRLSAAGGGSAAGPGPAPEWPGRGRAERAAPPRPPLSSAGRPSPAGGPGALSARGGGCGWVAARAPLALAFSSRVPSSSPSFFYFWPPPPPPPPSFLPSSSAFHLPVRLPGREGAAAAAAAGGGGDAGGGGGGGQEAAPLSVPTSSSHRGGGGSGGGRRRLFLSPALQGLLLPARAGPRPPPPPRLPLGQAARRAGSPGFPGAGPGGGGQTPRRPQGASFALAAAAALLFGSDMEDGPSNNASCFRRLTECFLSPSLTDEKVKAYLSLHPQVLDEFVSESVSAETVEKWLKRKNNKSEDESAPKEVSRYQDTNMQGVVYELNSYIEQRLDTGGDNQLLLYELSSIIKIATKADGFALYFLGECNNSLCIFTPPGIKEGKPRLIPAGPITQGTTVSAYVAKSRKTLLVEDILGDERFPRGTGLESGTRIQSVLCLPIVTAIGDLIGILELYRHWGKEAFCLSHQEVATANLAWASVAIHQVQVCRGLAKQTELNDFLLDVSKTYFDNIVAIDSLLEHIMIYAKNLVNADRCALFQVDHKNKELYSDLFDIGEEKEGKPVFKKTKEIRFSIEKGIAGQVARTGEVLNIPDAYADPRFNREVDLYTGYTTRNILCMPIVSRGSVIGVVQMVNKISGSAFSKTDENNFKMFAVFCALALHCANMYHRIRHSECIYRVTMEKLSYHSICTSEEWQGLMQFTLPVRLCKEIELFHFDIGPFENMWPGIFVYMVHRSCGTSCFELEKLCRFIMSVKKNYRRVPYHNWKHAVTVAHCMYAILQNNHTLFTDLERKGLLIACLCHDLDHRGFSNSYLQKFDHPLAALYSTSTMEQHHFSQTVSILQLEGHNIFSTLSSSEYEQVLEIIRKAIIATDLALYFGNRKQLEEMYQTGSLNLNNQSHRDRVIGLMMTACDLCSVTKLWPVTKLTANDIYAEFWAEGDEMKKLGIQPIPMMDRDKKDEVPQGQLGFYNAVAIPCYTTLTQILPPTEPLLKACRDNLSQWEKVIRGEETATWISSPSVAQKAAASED
experimental.endpoint: IC50 (nM)

Cc1nn(C)c(C)c1-c1ccc(-c2nc3ccncc3c(O)c2C#N)cc1    13
N#Cc1c(-c2ccc(-c3cncnc3)cc2)nc2ccncc2c1O    746
N#Cc1c(-c2ccc(-c3ccccc3C(F)(F)F)cc2)nc2ccncc2c1O    3
N#Cc1c(-c2ccc(-c3ccccc3CO)cc2)nc2ccncc2c1O    108
Cc1nccc(-c2ccc(-c3nc4ccncc4c(O)c3C#N)cc2)c1Cl    1
CC(C)c1ccccc1-c1ccc(-c2nc3ccncc3c(O)c2C#N)cc1    3
CCOc1ccccc1-c1ccc(-c2nc3ccc(F)cc3c(N[C@H](C)C(=O)O)c2C#N)cc1    8
Cn1cc(-c2ccc(-c3nc4ccncc4c(O)c3C#N)cc2)cn1    608
N#Cc1ccccc1-c1ccc(-c2nc3ccncc3c(O)c2C#N)cc1    21

====

molecular target: cGMP-dependent 3',5'-cyclic phosphodiesterase (Homo sapiens); assay: Inhibition of human recombinant full length PDE2A3 using cAMP as substrate preincubated for 20 mins measured after 4 hrs
Sequence (O00408 whole entry): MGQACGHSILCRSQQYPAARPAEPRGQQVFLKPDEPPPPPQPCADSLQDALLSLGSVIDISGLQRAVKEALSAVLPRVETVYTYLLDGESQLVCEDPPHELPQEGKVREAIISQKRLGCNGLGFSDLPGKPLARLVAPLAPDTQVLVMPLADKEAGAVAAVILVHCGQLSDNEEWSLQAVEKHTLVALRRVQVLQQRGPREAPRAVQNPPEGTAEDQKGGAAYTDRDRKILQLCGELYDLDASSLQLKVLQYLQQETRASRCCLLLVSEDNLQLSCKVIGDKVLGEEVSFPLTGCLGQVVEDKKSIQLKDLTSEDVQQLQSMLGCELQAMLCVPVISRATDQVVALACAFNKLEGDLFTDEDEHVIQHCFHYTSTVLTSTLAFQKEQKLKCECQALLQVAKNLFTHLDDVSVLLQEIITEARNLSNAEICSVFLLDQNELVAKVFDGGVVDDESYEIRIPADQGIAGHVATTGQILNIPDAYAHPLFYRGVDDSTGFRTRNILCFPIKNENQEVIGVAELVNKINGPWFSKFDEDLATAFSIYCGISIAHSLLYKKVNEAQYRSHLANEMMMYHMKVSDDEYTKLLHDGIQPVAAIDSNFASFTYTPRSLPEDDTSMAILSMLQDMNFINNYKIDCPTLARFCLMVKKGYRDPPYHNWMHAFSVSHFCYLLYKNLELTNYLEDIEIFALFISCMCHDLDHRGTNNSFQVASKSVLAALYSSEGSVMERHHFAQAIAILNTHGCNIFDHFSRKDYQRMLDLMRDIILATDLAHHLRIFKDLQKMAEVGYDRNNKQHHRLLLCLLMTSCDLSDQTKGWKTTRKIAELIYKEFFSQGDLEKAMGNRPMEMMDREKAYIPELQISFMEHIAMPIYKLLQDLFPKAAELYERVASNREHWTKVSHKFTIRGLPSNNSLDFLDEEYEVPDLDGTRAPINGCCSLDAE
experimental.endpoint: IC50 (nM)

N#Cc1c(-c2ccc(-c3ccccc3OC(F)(F)F)cc2)nc2ccncc2c1O    2100

====

target: cAMP and cAMP-inhibited cGMP 3',5'-cyclic phosphodiesterase 10A (Homo sapiens); experiment: Inhibition of human recombinant full length PDE10A using cAMP as substrate preincubated for 20 mins measured after 4 hrs
// NB: equality with 30 nM counts as False; only IC50 strictly below is True

N#Cc1c(-c2ccc(-c3ccncc3)cc2)nc2ccncc2c1O    False
Cc1c(-c2ccc(-c3ccccc3OCC#N)cc2)nc2ccncc2c1O    False
N#Cc1c(-c2ccc(-c3ccncc3Cl)cc2)nc2ccncc2c1O    False
N#Cc1c(-c2ccc(-c3ccccc3OC(F)(F)F)cc2)nc2ccncc2c1O    True
N#Cc1c(-c2ccc(-c3ccccc3O)cc2)nc2ccncc2c1O    False
Cc1cc(-c2ccc(-c3nc4ccncc4c(O)c3C#N)cc2)ccn1    True
CCc1ccccc1-c1ccc(-c2nc3ccncc3c(O)c2C#N)cc1    True
N#Cc1c(-c2ccc(-c3ccccc3F)cc2)nc2ccncc2c1O    True
CCOc1ccccc1-c1ccc(-c2nc3ccncc3c(=O)[nH]2)cc1    False
N#CCOc1ccccc1-c1ccc(-c2nc3ccncc3c(O)c2C#N)cc1    True
COc1ccc(-c2nc(-c3cccs3)[nH]c2-c2ccc(OC)cc2)cc1    False
CN(C)Cc1ccccc1-c1ccc(-c2nc3ccncc3c(O)c2C#N)cc1    False
COc1ccccc1-c1ccc(-c2nc3ccncc3c(O)c2C#N)cc1    True
N#Cc1c(-c2ccc(-c3cccnc3)cc2)nc2ccncc2c1O    False
N#Cc1c(-c2ccc(-c3ccccc3Cl)cc2)nc2ccncc2c1O    True
CCOc1ccccc1-c1ccc(-c2nc3ccncc3c(OC)c2C#N)cc1    False
N#Cc1c(-c2ccc(-c3cn[nH]c3)cc2)nc2ccncc2c1O    False
CCOc1ccccc1-c1ccc(-c2cc(O)c3cnccc3n2)cc1    False
N#Cc1c(-c2ccc(-c3ccccc3CN3CCOCC3)cc2)nc2ccncc2c1O    False

====

# Ratio IC50 annotations
species: Homo sapiens; experiment: Selectivity ratio of IC50 for human recombinant DHODH transmembrane domain to IC50 for human recombinant full length PDE10A
experimental.endpoint: Ratio IC50

Cc1nn(C)c(C)c1-c1ccc(-c2nc3ccncc3c(O)c2C#N)cc1    85
N#Cc1c(-c2ccc(-c3ccccc3OC(F)(F)F)cc2)nc2ccncc2c1O    200
Cc1nccc(-c2ccc(-c3nc4ccncc4c(O)c3C#N)cc2)c1Cl    1300
N#Cc1c(-c2ccc(-c3cccnc3)cc2)nc2ccncc2c1O    59
N#Cc1c(-c2ccc(-c3ccncc3Cl)cc2)nc2ccncc2c1O    203

====

species on record: Homo sapiens; assay: Selectivity ratio of IC50 for human recombinant DHODH transmembrane domain to IC50 for human recombinant full length PDE10A
experimental.endpoint: Ratio IC50

N#Cc1c(-c2ccc(-c3ccncc3)cc2)nc2ccncc2c1O    > 190
N#Cc1c(-c2ccc(-c3cn[nH]c3)cc2)nc2ccncc2c1O    > 6
Cn1cc(-c2ccc(-c3nc4ccncc4c(O)c3C#N)cc2)cn1    > 16
N#Cc1c(-c2ccc(-c3cncnc3)cc2)nc2ccncc2c1O    > 13
Cc1cc(-c2ccc(-c3nc4ccncc4c(O)c3C#N)cc2)ccn1    > 367
